Target desc: Adrenergic β2 (Homo sapiens)
Construct: Adherent H292 cells are removed from tissue culture flasks by treatment with Accutase™ cell detachment solution; endogenous in cells; host or cells: H292 cells
Sequence (P07550 whole entry): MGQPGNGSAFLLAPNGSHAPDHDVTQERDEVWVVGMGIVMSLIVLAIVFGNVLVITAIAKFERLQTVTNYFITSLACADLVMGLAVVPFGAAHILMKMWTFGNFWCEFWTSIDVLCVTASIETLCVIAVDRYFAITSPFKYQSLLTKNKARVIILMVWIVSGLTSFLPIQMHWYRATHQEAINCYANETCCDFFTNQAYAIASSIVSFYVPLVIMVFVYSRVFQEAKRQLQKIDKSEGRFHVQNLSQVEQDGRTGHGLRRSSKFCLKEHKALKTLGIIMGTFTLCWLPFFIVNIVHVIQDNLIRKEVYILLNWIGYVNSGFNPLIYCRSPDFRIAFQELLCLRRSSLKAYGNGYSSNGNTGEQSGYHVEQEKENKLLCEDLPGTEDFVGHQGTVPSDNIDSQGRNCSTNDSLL
Test: Adrenergic β2 mediated cAMP production in H292 cells (AlphaScreen), concentration response
Format: cell-based
Test conditions: 60 min, 300 μM rolipram, read-out: β2 pEC50 (converted)
Where a name gives a salt, the structure may show the parent alone.
Endpoint: EC50 (nM)

CC(C)c1nc(C(=O)N2CCOC3(CCN(CCOc4ccc(CCOCCC(=O)N(CCNCCc5ccc(O)c6c5OCC(=O)N6)C5CCCCC5)cc4)CC3)C2)cs1 [Example 51, ditrifluoroacetate]: 63.1
O=C1COc2c(CCNCCN(C(=O)CCOCCc3cccc(CN4CCC5(CC4)CN(C(=O)c4csc(C6CCC6)n4)CCO5)c3)C3CCCCC3)ccc(O)c2N1: 158
CCCCN(CCNCCc1ccc(O)c2c1OCC(=O)N2)C(=O)CCOCCc1ccccc1OCCN1CCC2(CC1)CN(C(=O)c1csc(C(C)C)n1)CCO2 [Example 178, trifluoroacetate salt]: 501

(I) CC(C)c1nc(C(=O)N2CCOC3(CCN(Cc4cccc(CCOCCC(=O)N(CCNCCc5ccc(O)c6[nH]c(=O)sc56)C5CCOCC5)c4F)CC3)C2)cs1 [Example 11, ditrifluoroacetate]
(II) CC(C)c1nc(C(=O)N2CCOC3(CCN(Cc4cccc(OCCOCCC(=O)N(CCNCCc5ccc(O)c6c5OCC(=O)N6)C5CCCCC5)c4)CC3)C2)cs1 [Example 59, ditrifluoroacetate]
**Q:** Please state the entry with greater EC50 among I and II . Returns: label corresponding to the selected item.
**A:** II
(II: 631 nM, I: 79.4 nM)
